- MEASURED_ON: furin, P09958
- Sequence (P09958 whole entry): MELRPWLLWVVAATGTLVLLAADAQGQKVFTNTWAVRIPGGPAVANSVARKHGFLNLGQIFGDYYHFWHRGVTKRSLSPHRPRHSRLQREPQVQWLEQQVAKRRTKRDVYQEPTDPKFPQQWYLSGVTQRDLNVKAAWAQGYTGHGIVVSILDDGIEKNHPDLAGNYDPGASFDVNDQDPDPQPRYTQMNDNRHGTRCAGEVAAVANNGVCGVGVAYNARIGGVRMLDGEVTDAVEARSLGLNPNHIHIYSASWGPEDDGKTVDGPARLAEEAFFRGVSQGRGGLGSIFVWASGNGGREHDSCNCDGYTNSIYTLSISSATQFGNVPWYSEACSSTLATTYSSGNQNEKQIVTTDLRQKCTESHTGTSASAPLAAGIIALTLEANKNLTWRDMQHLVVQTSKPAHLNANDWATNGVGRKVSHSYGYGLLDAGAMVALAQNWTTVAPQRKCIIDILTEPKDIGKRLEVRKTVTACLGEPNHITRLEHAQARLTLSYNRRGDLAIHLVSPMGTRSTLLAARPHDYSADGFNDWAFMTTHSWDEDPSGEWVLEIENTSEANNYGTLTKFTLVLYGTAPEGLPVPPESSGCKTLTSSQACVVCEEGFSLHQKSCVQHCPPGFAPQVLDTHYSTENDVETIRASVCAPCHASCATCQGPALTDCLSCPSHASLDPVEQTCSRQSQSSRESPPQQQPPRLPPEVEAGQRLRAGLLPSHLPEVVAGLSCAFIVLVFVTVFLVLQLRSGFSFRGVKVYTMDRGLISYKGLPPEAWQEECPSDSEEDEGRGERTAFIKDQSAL
- ASSAY_METHOD_TEXT: furin cleavage Z-score vs untreated control; higher = more cleavage, active = 3.5 or more, inactive = 1 or less, 8 variable residues between constant flanks;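 also: purified furin at 1:10 enzyme:substrate in 50 mM HEPES pH 7.5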
- EXPERIMENTAL_SETUP: 7.5 min
The list shows a part of the results. The hit rate among all sequences tested is not known here.
Classes are defined on furin cleavage Z-score with ranges low: < 0.2; middle: ≥ 0.2 and < 3; high: ≥ 3

Qu. The entry to classify is CAEVFCHRPSAGNASASA [HC2347] ; which class holds it?
Ans. low

Qu. The entry to classify is CATVRRQKREAGNASASA [FS-1175] ; which class holds it?
Ans. high

Qu. The entry to classify is CAMEECSQPLAGNASASA [HC1759] ; which class holds it?
Ans. middle

Qu. The entry to classify is CALTVTQLLRAGNASASA [HC1136] ; which class holds it?
Ans. low

Qu. The entry to classify is CAEECSQHLPAGNASASA [HC1015] ; which class holds it?
Ans. middle

Qu. The entry to classify is CARSVRARLLAGNASASA [HC1623] ; which class holds it?
Ans. low

Qu. The entry to classify is CARVRRAAAEAGNASASA [FS-2104] ; which class holds it?
Ans. high

Qu. The entry to classify is CARSKRRHRTAGNASASA [FS-3086] ; which class holds it?
Ans. high

Qu. The entry to classify is CARVRRRLDLAGNASASA [FS-2843] ; which class holds it?
Ans. middle

Qu. The entry to classify is CATTPCPGSWAGNASASA [HC80] ; which class holds it?
Ans. low

Qu. The entry to classify is CALKRMQKRSAGNASASA [FS-610] ; which class holds it?
Ans. high

Qu. The entry to classify is CAKTPCSGSWAGNASASA [HC1834] ; which class holds it?
Ans. low

Qu. The entry to classify is CAGNRRRARAAGNASASA [FS-126] ; which class holds it?
Ans. high

Qu. The entry to classify is CASYANGSGPAGNASASA [HC397] ; which class holds it?
Ans. middle

Qu. The entry to classify is CARLHRFDSQAGNASASA [FS-2569] ; which class holds it?
Ans. low

Qu. The entry to classify is CAGNEGCGWAAGNASASA [HC204] ; which class holds it?
Ans. low

Qu. The entry to classify is CAFVLNNTRPAGNASASA [HC429] ; which class holds it?
Ans. low

Qu. The entry to classify is CAPEGRRKRTAGNASASA [FS-1042] ; which class holds it?
Ans. high

Qu. The entry to classify is CARHRRATGAAGNASASA [FS-2944] ; which class holds it?
Ans. high

Qu. The entry to classify is CAGFHRRARAAGNASASA [FS-239] ; which class holds it?
Ans. high

Qu. The entry to classify is CARTVVLTESAGNASASA [HC1326] ; which class holds it?
Ans. middle

Qu. The entry to classify is CAPEGRTWAQAGNASASA [HC196] ; which class holds it?
Ans. middle

Qu. The entry to classify is CAMEECSRHLAGNASASA [HC1733] ; which class holds it?
Ans. middle

Qu. The entry to classify is CAAKRRQKREAGNASASA [FS-1110] ; which class holds it?
Ans. high

Qu. The entry to classify is CARSKRSRLLAGNASASA [FS-3208] ; which class holds it?
Ans. middle

Qu. The entry to classify is CATTPCGGSWAGNASASA [HC62] ; which class holds it?
Ans. low

Qu. The entry to classify is CAWICEVLSDAGNASASA [HC1152] ; which class holds it?
Ans. low

Qu. The entry to classify is CAENLPYLVAAGNASASA [HC951] ; which class holds it?
Ans. middle

Qu. The entry to classify is CANWTRGERCAGNASASA [HC483] ; which class holds it?
Ans. middle

Qu. The entry to classify is CARLRRRASQAGNASASA [FS-2995] ; which class holds it?
Ans. middle

This collection of values is drawn from the supplement of paper PMC3545927.
